Numbers sourced from the RNAGym collection of RNA variant scans (doi:10.7554/elife.80360).

B1: CPEB3 Ribozyme (parent)
chain: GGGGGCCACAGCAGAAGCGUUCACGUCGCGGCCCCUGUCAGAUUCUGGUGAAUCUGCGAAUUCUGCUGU

variants of: B1; experiment: self-cleavage, relative activity (ratio to wild type); higher = more cleavage; co-transcriptional
I would appreciate it if you labelled entries Y when self-cleavage is 0.3 or higher, otherwise N.

record.sequence	label
UGGGGCCACAGCAGAAGCGUUCACGUCGCGGCCCCUGUCAGAUUCUGGUCAAUCUGCGAAUUCUGCUGU [G1U G50C]	N
GGGGGGCACAGCAGAAGCGUUCACGUCGCGGCCCCUGUCAGAUUCUGGUGAAUCUGCGAAUUCUGCUGA [C6G U69A]	Y
GGGGGCCACAGCAGAAGCGUUGACGUCGCAGCCCCUGUCAGAUUCUGGUGAAUCUGCGAAUUCUGCUGU [C22G G30A]	N
GGGCGCCACAGCAGGAGCGUUCACGUCGCGGCCCCUGUCAGAUUCUGGUGAAUCUGCGAAUUCUGCUGU [G4C A15G]	Y
GGGGGCCACAGCAGAAGCGUUCACGUCGCGGCCCGUGUCUGAUUCUGGUGAAUCUGCGAAUUCUGCUGU [C35G A40U]	N
GAGGGCCACAGCAGAAGCGUUCACGUCGCGGCCCCUGUCAGAUUCUGGUGUAUCUGCGAAUUCUGCUGU [G2A A51U]	N
GGGGGCCACAGCAGAAGCGUGCACGUCGCGGCCCCUGUCAGAUUCAGGUGAAUCUGCGAAUUCUGCUGU [U21G U46A]	Y
GGGGGCCACAGCAGAAGCGUCCACGUCGCGGCCCCUGUCAGAUUCUGGUGAAUGUGCGAAUUCUGCUGU [U21C C54G]	Y
GGGGGCCACAGCAGAAGCGUUCUCGUCGCGGUCCCUGUCAGAUUCUGGUGAAUCUGCGAAUUCUGCUGU [A23U C32U]	Y
CGGGGUCACAGCAGAAGCGUUCACGUCGCGGCCCCUGUCAGAUUCUGGUGAAUCUGCGAAUUCUGCUGU [G1C C6U]	N
GGGGGCCACAGCAGAAGCGUUCACGUCGCGGCCCCUGUCAGACUCUGGUGAAUCUGCGAAUUCUGUUGU [U43C C66U]	Y
GGGGGCCACAGCAGAAGCGUUCACGUCGCGGCCCCUGUCAGAUUCUGGUGAAACUGCGAAUUCUGCUCU [U53A G68C]	Y
GGGGGCCACAGCAGAAGCGUUCACGUCGCGGCCCCUGUCAGAUGCUGGUGAAUCUGCGAACUCUGCUGU [U44G U61C]	Y
GGGGGCCACAGCAGAAGCGUUCACGUCGCGGCCCCUGUCAGAGACUGGUGAAUCUGCGAAUUCUGCUGU [U43G U44A]	Y
GGGGGCCACAGCAGAAGCGGUCACGUCGCGGCCCCUGUCAGUUUCUGGUGAAUCUGCGAAUUCUGCUGU [U20G A42U]	N
GGGGGCCACAGCAGAAGUGUUCACGUCGCGGCCCCUGUCAGAUGCUGGUGAAUCUGCGAAUUCUGCUGU [C18U U44G]	Y
GCGGGCCACAGCAGAAGCGUUCACGUCGCGGCCCCUGUCUGAUUCUGGUGAAUCUGCGAAUUCUGCUGU [G2C A40U]	N
GGGGGACACAGCAGAAGCAUUCACGUCGCGGCCCCUGUCAGAUUCUGGUGAAUCUGCGAAUUCUGCUGU [C6A G19A]	N
GGGGGCCACAGCAGAAGCGUUCACGUCGGGGCCCCUGUCAGAUUCUGGUGAAUCUGCGAAUACUGCUGU [C29G U62A]	N
GGGGGCCACAGCAGAAGCGUUCACGUCGCGUCCCCUGUCAGAUUCUGGUGAAUCUGCGAAUUCUGCUGC [G31U U69C]	Y
GGGGGCCACAGCAGAAGCGUUCACGUCGCGGCCCCUGUUAGAUUCUGGUGAAUCUGCGAAUUCUGCUGU [C39U]	Y
GGGGGCCACAGCAGAAGCGUUCACGUCGCGGCCCCUGUCAGAUUCUGGUGAAUCUGCUAAUUCGGCUGU [G58U U64G]	Y
GGGGGCCACAGCAGAAGCGUUCACGUCGCGGCCCCUGUGAGAUUCUGGUGAAUCUGCGAAUUCUGCUGU [C39G]	Y
GGGGGCCACAGCAGAAGCGUUCACGUCGCGGCCCCUGUCAGAUCCUGGUGCAUCUGCGAAUUCUGCUGU [U44C A51C]	Y
GGGGGCCACAGCAGAAGCGUUCACGUCGCGGCCCCUGUCAGAUUCUGGUGAAUCUGCGGAUUCUGCUGG [A59G U69G]	Y
CGGGGCCACAGCAGAAGCGUUCACGUCGCGGCCCCUGUCAGAUUCUGGUGAGUCUGCGAAUUCUGCUGU [G1C A52G]	N
GGGGGCCACAGCAGAAGCGUUCACGUCGCGGCCCCUGUCAGAUUCUGGUGAUUCUGCGCAUUCUGCUGU [A52U A59C]	Y
GGGGGCCACAGCAGAAGCGUUCACGUCGCGGCCCCUGUCAGAUUCUGGUGAAACUGCGAAUUCUACUGU [U53A G65A]	Y
AGGGGCCACAGCAAAAGCGUUCACGUCGCGGCCCCUGUCAGAUUCUGGUGAAUCUGCGAAUUCUGCUGU [G1A G14A]	N
GGGGGCCACAGCAGAACCGUUCACGUCGCGGCCCCUGUCAGAUUCUGGUGAAUCGGCGAAUUCUGCUGU [G17C U55G]	N
GGGGGCCACAGCGGAAUCGUUCACGUCGCGGCCCCUGUCAGAUUCUGGUGAAUCUGCGAAUUCUGCUGU [A13G G17U]	N
GGGCGCCACAGCAGAAGCGUUCACGUCGCGGCCCCUGUCAGAUUCUGGUGAAUCUGCGAAUUCUGCGGU [G4C U67G]	Y
GGGGUCCACAGCAGAAGCGUUCACGUCGCGGCCCCUGUCAGAUUCUGGUCAAUCUGCGAAUUCUGCUGU [G5U G50C]	Y
GGGGGCCACAGCAGAAGCGUUCACGUCGCGGCCCCUGUCAGAUUCAGGUGAAUCUGCGAGUUCUGCUGU [U46A A60G]	Y
GGGGGCCACAGCAGAAGCGUUCACGUCGCGGCCCCUGUCCGAUUCUGGUGAAUCUGCGAAUUCAGCUGU [A40C U64A]	Y
GGUGGCCACAGCAGAAGCGUUCACGUCGCGGCCCCUGUCAGAUUCGGGUGAAUCUGCGAAUUCUGCUGU [G3U U46G]	N
GGGGGCCACAGCAGAAGCGUUCACGUCGCGGCCCCUGUCAGAGUCUGGCGAAUCUGCGAAUUCUGCUGU [U43G U49C]	Y
GGGGGCCACAGCAGAAGCGUUCACGUCGCGGCCCCUGUCAGAUUCUAGUGAAUCUGCGAACUCUGCUGU [G47A U61C]	Y
GGGGGCCACAGCAGAAGCGUGCACGUCGCGGCCCCUGUCUGAUUCUGGUGAAUCUGCGAAUUCUGCUGU [U21G A40U]	Y
GGGGGCCACAGCAGAAGCGUUCACGUCGCGGCCCCUGUCAGAUUCUGGUCAAUCUGCGAACUCUGCUGU [G50C U61C]	Y
GGGGGCCACAGCAGAAGCGUUCACGUCGCGGCCCCUGUCAGAUUCUGGUGAAUCUACGAUUUCUGCUGU [G56A A60U]	Y
GGGGGCCACAGCAGAAGCGUUCAGGUCGCGGCCGCUGUCAGAUUCUGGUGAAUCUGCGAAUUCUGCUGU [C24G C34G]	N
GGGGACCACAGCAGUAGCGUUCACGUCGCGGCCCCUGUCAGAUUCUGGUGAAUCUGCGAAUUCUGCUGU [G5A A15U]	Y
